- assay.target: T1, Anti-CD28 Fab (SEQ ID NOs: 696, 697)
- T1 construct: Biotinylated and captured on neutravidin coated plates in the phage ELISA
- T1 sequence (VH, as listed by the source, chain 1 of 2): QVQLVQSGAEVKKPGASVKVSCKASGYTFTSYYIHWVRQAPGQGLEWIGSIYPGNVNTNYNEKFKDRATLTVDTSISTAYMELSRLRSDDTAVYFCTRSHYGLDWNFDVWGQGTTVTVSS
- T1 sequence (VL, as listed by the source, chain 2 of 2): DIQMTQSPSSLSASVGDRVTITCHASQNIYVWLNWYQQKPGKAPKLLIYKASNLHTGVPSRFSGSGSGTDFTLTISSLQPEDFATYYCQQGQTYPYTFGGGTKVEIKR
- assay.comment: phage binding ELISA on captured anti-CD28 Fab; competitor: CD28 antigen pre-incubated in the well;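 note: clonal phage supernatants added briefly to wells preblocked with or without CD28, bound phage detected through an HRP-linked anti-M13 antibody, wells with blocking buffer alone as comparison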
property.name: Anti-CD28 Fab signal in the presence of CD28 (phage binding ELISA)

binder	data.value
TCAAGVHFGWPLCF (tested as crude phage supernatant) [Phage-1554]	0.07
SCSAGATYEWPYCF (tested as crude phage supernatant) [Phage-1560]	0.06
QCAAGAMWTWPVCF (tested as crude phage supernatant) [Phage-1550]	0.07
TCAAGAHYTWPTCL (tested as crude phage supernatant) [Phage-1558]	0.07
NCSAGATWPWPMCF (tested as crude phage supernatant) [Phage-1553]	0.1
SCAAGAHYKWPVCI (tested as crude phage supernatant) [Phage-1547]	0.06
